Molecular target: HLA-B*07:02
Experiment: IEDB peptide-MHC binding, purified MHC/competitive/radioactivity; filed as Kd, often an IC50 or EC50 that approximates it; bounds were set here for any values at or beyond the usual limits of such assays
Details: source organism: Dengue virus 1 Brazil/97-11/1997
Record form. Attribute: pKd. Fill in for each entry.
Bear in mind: pKd is minus log10 of a mol/L concentration; give just that figure.

Memo: `PPEVERAVL` , reported pKd: 6.81

Memo: `SPIVNREGKI` , reported pKd: 6.74

###

Target: HLA-B*08:01
Assay: IEDB peptide-MHC binding, purified MHC/competitive/fluorescence; filed as Kd, often an IC50 or EC50 that approximates it; bounds were set here for any values at or beyond the usual limits of such assays
Conditions: source organism: Escherichia coli 536
QUANTITY KIND: Kd

Memo: `LIAVPHTKL` , reported Kd: ≥ 20 µM
